Hello, the source for this data is patent US20240180900A1, in case you need it.

Assay: preliminary PK in mCRPC participants (Phase 1/2)
Format: in vivo, human
Details: male, human, plasma, oral, 500 mg, 500 mg QD, Mean (CV %); read-out: AUC0-24 Day 21
Experimental: A chiral bioanalytical method by LC-MS/MS has been developed to characterize the PK of Compound A. Pharmacokinetic analyses were performed using noncompartmental analysis methods. Mean steady state peak/trough ratio is less than 2, which indicates minimal fluctuation in plasma concentrations once steady state is achieved. Steady state occurs within 3 weeks into treatment. An ongoing, open-label, Phase 1/2 study in male participants with mCRPC. […]
Endpoint label: AUC(0-t) (µg·h/mL)
Give bare numbers, in µg·h/mL.

What measured AUC(0-t) goes with COc1cc(O[C@H]2C(C)(C)[C@H](NC(=O)c3ccc(N4CCC(CN5CCN(c6ccc(C(=O)N[C@H]7CCC(=O)NC7=O)c(F)c6)CC5)CC4)cc3)C2(C)C)ccc1C#N ? 15
